# maps each entry to its melting point

CC(=O)O[C@@H]1[C@H](OC(C)=O)[C@@H](C)O[C@H]1n1c(Cl)nc2c(Br)c(Cl)c(Cl)cc21 = 138 to 141 °C
COc1ccc2c(=O)cc(-c3ccc(OCC(O)CNC4CC4)cc3)oc2c1 (centres undefined) = 105 to 106 °C
COC(=O)Cc1ccc(CNC(=O)C2Cc3ccccc3N2S(=O)(=O)c2ccc(-c3cccc(C(F)(F)F)c3)cc2)cc1C (centres undefined) = 60 to 67 °C

Okay, now this compound:
For the compound shown here, CC(=O)OC1CC2CCC3C(CCC4(C)C(C(C)=O)CCC34)C2(C)CC1Br (centres undefined) , give the reported melting point.
142 to 146 °C

###

Item-by-item account of melting point

C=CCOC(=O)c1ccc(NC(=O)c2ccc(OC)c(C34CC5CC(CC(C5)C3)C4)c2)cc1 = 191 to 192 °C
Oc1ccc2c(c1)SCCc1c-2n(CCCCCN2CCCCC2)c2ccc(O)cc12 = 195 to 196 °C
CCn1ncc2c(NCC3CCCCC3)c3cc(OCCN4CCOCC4)ccc3nc21 = 176 to 178 °C

// query melting point value for entry CS(=O)(=O)N1CCC(N)CC1
65.3 to 65.7 °C

Could you share which melting point value was measured for N#Cc1cnc2cc(/C=C/c3ccncc3)ccc2c1Nc1ccc(Cl)cc1Cl ?
240 to 242 °C

###

Item-by-item account of melting point

Solved cases below.
CC(C)(C)COC(=O)N1CC2CC(CN(CC(O)COc3ccc(C#N)cc3)C2)C1 (centres undefined) = 146 to 147 °C
COc1cc(-n2nc(C(F)(F)F)cc2C(F)(F)F)ccc1NC(=O)c1snnc1C = 119 to 121 °C
O=C(OCc1ccccc1)C1CCCc2[nH]c3ccccc3c21 (centres undefined) = 108 to 112 °C
CCCN(CCC)c1nsc(NC(=O)NC)c1C#N = 179 to 180 °C
COC(=O)C1=C(C)NC(C)=C(C(=O)NCCOC(=O)N2CCC3(CC2)CC(=O)N(OC)C3=O)C1c1cccc([N+](=O)[O-])c1 (centres undefined) = 107 to 113 °C
CCCCc1oc2ccccc2c1C(=O)N(Cc1ccccc1)Cc1ccc2cc(O)ccc2c1 = 160 to 164 °C
CN(c1ccc(Cl)cc1)S(=O)(=O)c1cc(C(=O)Nc2ccc(S(C)=O)cc2)ccn1 (centres undefined) = 172 to 174 °C
C=Cc1cc2ccccc2[nH]1 = 91 °C

Here's the next entry for you.
Bench note: what melting point did CCc1[nH]n(C2CCCC2)c2nc(-c3ccccc3)nc(=O)c1-2 show?
221 to 222 °C

###

quantity kind: melting point

Past entries and their recorded results:
CCSSCS(C)(=O)=O = 34.6 to 36.3 °C
Nc1noc(-c2cc3c(Oc4ccc(Cl)cc4)cncc3s2)n1 = 217 to 219 °C
Nc1c[nH]c(=S)n1C1CCc2ccccc2C1 (stereo unspecified) = 169 to 171 °C
CCn1c(=O)c2c(nc(/C=C/c3cccc(O)c3)n2C)n(CC)c1=O = 250 to 251 °C
ClCc1ccc(OCCOc2ccccc2)cc1 = 159 to 160 °C

Query molecule follows.
What does the data say about its melting point? Entry: CCCCc1oc2ccccc2c1C(OC)c1cc(I)c(OCCN(CC)CC)c(I)c1 (stereo unspecified)
96 to 98 °C

###

quantity kind: melting point

Past entries and their recorded results:
CCCCCCCCCNC(=O)CCC(=O)OO = 85 to 91 °C
CCCCCCCC(=O)N(C)Cc1cccc(-c2ccc(C=CC(=O)O)o2)c1 = 96 to 98 °C

Which melting point reading was recorded for the molecule CCC1(CC)OC(=O)Nc2ccc(-c3cccc([N+](=O)[O-])c3)cc21 ?
193 to 194 °C

Entry under review: NC(=O)C1(N2C(=O)c3ccccc3C2=O)CCCCC1 . Reported melting point?
224 to 226 °C

Which melting point is reported for this molecule? CCc1ccc2c(c1)c(-c1ccccc1Cl)c(NC(=O)Nc1ccc(F)cc1F)c(=O)n2C
192 to 195 °C

Consider the molecule shown here: C=C(C)C(=O)OCCNc1nc(Cl)nc(Cl)n1 What is its recorded melting point?
138 to 140 °C

Reported melting point, molecule CC(C)c1cc(C(C)C)c2ncn(/C=C/C(=O)O)c(=O)c2c1 : ____
181 to 182 °C

Consider the molecule shown here: Cc1ccc(S(=O)(=O)NC(=O)OCCc2ccc(-n3c(CCC(=O)c4ccccn4)nc4cc(C(F)(F)F)c(Cl)cc43)cc2)cc1 What is its recorded melting point?
234 °C

Requested read-out: melting point. Entry: COc1ccc(C2=CCN(Cc3c[nH]c4ncccc34)CC2)cc1
202 to 204 °C

Which melting point is listed for CCOCc1nc2c(N)nc3ccccc3c2n1CC1(N(C(N)=O)C(C)C)CCCCC1 ?
135 to 160 °C

Consider the molecule O=C(CNc1ccc(Cl)cc1)NCCc1ccc(OCc2ccccc2)c(OCc2ccccc2)c1 and give its measured melting point.
121 °C

Need melting point of CC(C)CC(NC(=O)c1ccc(F)cc1SSc1cc(F)ccc1C(=O)NC(CC(C)C)C(=O)O)C(=O)O (stereo not given) , thanks.
261 to 262 °C

Returns the measured melting point for the input molecule. Input: O=C(/C=C/c1cccnc1)NCCc1cccc(OCc2ccccc2)c1
115 to 116 °C

What value of melting point has been recorded for this entry: CN1CCN(CC(=O)C2CC3c4cccc5[nH]cc(c45)CC3N(C)C2)CC1 (stereo not given)
198 to 202 °C

Dear colleague, I am looking for the recorded melting point of the following molecule: COC(OC)C(CC(=O)O)C(C)(C)S(=O)(=O)c1ccc(C)cc1 (stereo not given)
144 °C

Need melting point, item CCOc1c(OC)cccc1C(=O)Nc1ccc(C(=O)OC)cc1C(=O)OC
113 to 115 °C

Quick check: melting point of CC(=O)Nc1ccc(Cn2c3c(c4cc(F)cc(F)c42)CCCC3CC(=O)O)cc1 (stereo not given) ?
237 to 239 °C

Suppose we examine the molecule COC(=O)Cc1oc2ccc(Cl)cc2c1-c1ccccc1C ; what melting point value has been reported?
135 to 136 °C

# query: melting point of entry CCOC(=O)Cc1ccc2cc(Br)ccc2n1
100 to 101 °C

melting point lookup needed for COP(=O)(CCC(C)(C)c1ccc(O)cc1O)OC , thanks.
142 to 143 °C

###

Entries and their melting point values follow.

// worked examples, melting point included
c1ccc(CN2CCN(CC3CCc4ccccc4O3)CC2)cc1 (stereo not given) = > 230 °C
CN(C(C)(C)C)S(=O)(=O)c1cccnc1SCc1ccccc1 = 92 to 94 °C
COCCn1cc2c(n1)c(N)nc1ccccc12 = 230 to 231 °C
S=C(NCCc1ccc(Cl)cc1)Nc1nc2ccccc2[nH]1 = 173 to 182 °C
COCCNc1nc(C2C(=O)Nc3ccc(Br)cc32)c2cn(CCOC)nc2n1 (stereo not given) = > 300 °C

Requested read-out: melting point. Entry: CCOC(=O)c1nnc(Cc2ccccc2Cl)n1C
87 to 88 °C

May I ask what melting point has been recorded for COc1ccc(/C=C/S(=O)(=O)CS(=O)(=O)/C=C/c2ccc(O)c(OC)c2)cc1N ?
148 to 150 °C

###

melting point for assorted molecules

Worked examples follow.
CC1(C)CCc2cc(C(=O)c3ccc4cc(C(=O)O)ccc4c3)ccc2O1 = 269 °C
CC1(C(O)C(c2cccc(Cl)c2)n2ccnc2)COC1 (stereo not given) = 145 to 146 °C
O=C(O)c1cc(=O)c2c(OCC(O)COc3ccc(Cl)cc3)cccc2o1 (stereo not given) = 191 to 193 °C
CCCCOc1ccc(Cl)cc1C(=O)NCCc1ccc(CC(=O)OCC)cc1 = 80 °C
O=C(c1cc(N2CCOCC2)ccn1)N(O)Cc1ccccc1 = 105 to 110 °C
COC(=O)Oc1cc(N2C(=O)C3=C(CCCC3)C2=O)c(F)cc1Cl = 138 to 146 °C

Entry under review: Nc1ccccc1Oc1cc(-c2ccc(C(F)(F)F)cc2)ncn1 . Reported melting point?
188 °C

For the molecule CC(=NC(C#N)=C(N)C#N)c1ccccc1O , what melting point is on record?
181 to 183 °C

Given Cc1c(-c2ccc3c(c2)N(C)C(=O)CS3)nc2ccccn12 , state its recorded melting point.
191 °C

# input molecule: COc1cc(Cc2cnc(NC(=O)C(C)(C)C)nc2NC(=O)C(C)(C)C)c(C=O)c(OC)c1OC ; wanted: its melting point
162 to 163 °C

// lookup melting point for CCCN(c1nc(-c2ccc(OC)cc2Cl)c(C)s1)c1cc(CO)ccc1OC
115 °C

Name the reported melting point value associated with the molecule O=C1c2[nH]c3cc(-c4ccccc4)nn3c(=O)c2CCN1C1CCCCC1
> 320 °C

###

Entries annotated with measured melting point

Cc1cc(C#CC2(O)CN3CCC2CC3)cc(C)c1OCCOc1ccccc1 (centres undefined) = 141 to 142 °C
O=c1c(Cc2ccccc2)c(-c2ncco2)n(-c2ccccc2)c2cc(Cl)ccc12 = 219 to 220 °C
COC(=O)c1ccc2scc(-c3ccc(SC)cc3)c2c1 = 135 to 136 °C
C=CCNC(=S)NNCC1CC2c3cccc4[nH]cc(c34)CC2N(C)C1 (centres undefined) = 207 to 208 °C
COc1ccc(CN2CCN(c3nc(C)c(C(N)=O)s3)C2=O)cc1F = 182 to 184 °C

Now, please, on to the next compound.
Which melting point value belongs to CCOC(=O)c1cnc2c(cnn2Cc2ccco2)c1O ?
103 to 106 °C
